- target entity: T1, human TIM-3 antigen (His-tagged TIM-3 extracellular domain expressed by Ampsource Biopharma Shanghai Inc.) (human, UniProt Q8TDQ0 22-202)
- T1 construct: extracellular domain; also called TIM-3-His; not shown: His tag
- assay protocol: BLI (ForteBio Octet) as stated; antibody captured by anti-human IgG Fc, antigen in solution, 1:1 model
value kind: pKd
Please keep in mind that pKd is minus log10 of the molar concentration; only the number is needed.

Worked examples, 2 binders total:
humanized anti-TIM-3 antibody AB12S5 (antibody, V domains shown, it was captured through anti-human IgG Fc) VH: QVQLVQSGAEVKKPGASVKVSCKASGYTFTNYVMHWVRQAPGQRLEWMGWIDPDNDGIKYSQKFQGRVTITRDTSASTAYMELSSLRSEDTAVYYCARDFGYVDWFPYWGQGTTVTVSS VL: DIQMTQSPSSLSASVGDRVTITCQASQDVTTALNWYQQKPGKAPKLLIYSASNLETGVPSRFSGSGSGTDFTFTISSLQPEDIATYYCQQHYSIPPTFGGGTKVEIK = 11.32
humanized anti-TIM-3 antibody AB12S3 (antibody, human IgG4 S228P, kappa, V domains shown, Human IgG4 S228P (EU) heavy chain and human kappa light chain) VH: EVQLVQSGAEVKKPGASVKVSCKASGYTFTNYVMHWMRQAPGQRLEWIGYIDPDNDGIKYNEKIKGKATLTSDKSSSTAYMELSSLRSEDTAVYYCARDFGYVDWFPYWGQGTTVTVSS VL: DIVMTQSPSSLSASVGDRVTITCKASQDVTTAVAWYQQKPGKAPKLLIYSASNRYIGVPDRFTGSGSGTDFTFTISSLQPEDIATYYCQQHYSIPPTFGGGTKVEIKR = 11.57

Query block: Which measured pKd value corresponds to humanized anti-TIM-3 antibody AB12S6 (antibody, V domains shown) VH: QVQLQLSGAEVKKPGASVKVSCKASGYTFTNYVMHWVRQAPGQRLEWMGWIDPDNDGIKYSQKFQGRVTLTSDKSASTAYMELSSLRSEDTAVYYCARDFGYVDWFPYWGQGTLVTVSS VL: DIQMTQSPSSMSASVGDRVTITCQASQDVTTALNWYQQKPGKSPKLLIYSASNLETGVPSRFSGSGSGTDFTFTISSLQPEDIATYYCQQHYSIPPTFGGGTNLEIK ?
Result block: 11.36

Query block: Give its pKd value. Item: humanized anti-TIM-3 antibody AB12S7 (antibody, V domains shown) VH: EVQLQLSGAEVKKPGASVKVSCKASGYTFTNYVMHWMRQKPGQRLEWMGWIDPDNDGIKYSQKFQGRVTITRDKSSSTAYMELSSLRSEDTAVYYCARDFGYVDWFPYWGQGTLVTVSS VL: DIVMTQSPSSLSASVGDRVTITCQASQDVTTALNWYQQKSGQSPKLLIYSASNLETGVPSRFSGSGSGTDFTFTISSLQPEDIATYYCQQHYSIPPTFGGGTNLEIK
Result block: 11.46
